Measured kinase still bound, per cent of control, listed per entry for reference.
target: ROCK2 (human); assay: KINOMEscan competition binding; settings: compound 10.0 µM

[
  {
    "Smiles Record": "COc1cc(C(=O)NC2CCN(C)CC2)ccc1Nc1ncc2c(n1)N(C1CCCC1)CCC(=O)N2C(C)C",
    "Unit Of Measurement": "%",
    "kinase still bound, per cent of control": 100
  },
  {
    "Smiles Record": "O=C(NC1CC1)c1cccc(-c2ccc3c(NC(=O)C4CC4)n[nH]c3c2)c1",
    "Unit Of Measurement": "%",
    "kinase still bound, per cent of control": 53
  },
  {
    "Smiles Record": "CCN1CCN(Cc2ccc(Nc3ncc4c(n3)N(C)c3ccccc3C(=O)N4C)cc2C(F)(F)F)CC1",
    "Unit Of Measurement": "%",
    "kinase still bound, per cent of control": 100
  },
  {
    "Smiles Record": "OCCCNc1cc(-c2ccnc(Nc3cccc(Cl)c3)n2)ccn1",
    "Unit Of Measurement": "%",
    "kinase still bound, per cent of control": 100
  },
  {
    "Smiles Record": "Cc1ccc2nc(NCCN)c3ncc(C)n3c2c1",
    "Unit Of Measurement": "%",
    "kinase still bound, per cent of control": 100
  },
  {
    "Smiles Record": "O=C1Nc2ccc(I)cc2/C1=C/c1cc(Br)c(O)c(Br)c1",
    "Unit Of Measurement": "%",
    "kinase still bound, per cent of control": 55
  },
  {
    "Smiles Record": "CCOc1cc2ncc(C#N)c(Nc3ccc(OCc4ccccn4)c(Cl)c3)c2cc1NC(=O)/C=C/CN(C)C",
    "Unit Of Measurement": "%",
    "kinase still bound, per cent of control": 86
  },
  {
    "Smiles Record": "Cn1c(=O)n(-c2ccc(C(C)(C)C#N)cc2)c2c3cc(-c4cnc5ccccc5c4)ccc3ncc21",
    "Unit Of Measurement": "%",
    "kinase still bound, per cent of control": 100
  },
  {
    "Smiles Record": "C=CC(=O)Nc1cccc(Nc2nc(N[C@H]3CC[C@H](N(C)C)CC3)nc3c2ncn3C(C)C)c1",
    "Unit Of Measurement": "%",
    "kinase still bound, per cent of control": 10
  },
  {
    "Smiles Record": "Cc1ccc(C(=O)Nc2cccc(C(F)(F)F)c2)cc1Nc1cncc(C(N)=O)c1",
    "Unit Of Measurement": "%",
    "kinase still bound, per cent of control": 100
  },
  {
    "Smiles Record": "CN(C)C/C=C/C(=O)Nc1cccc(Nc2ncc3c(n2)N(C)c2ccccc2C(=O)N3C)c1",
    "Unit Of Measurement": "%",
    "kinase still bound, per cent of control": 58
  }
]
